test: Example 2: phase 1 crossover 3×3 study, fixed kilocalorie meal at 20% and 50% fat, single-dose pharmacokinetics of nelfinavir 250 mg tablets; format: in vivo, human (normal, healthy volunteers); conditions: human, plasma, oral, 1250 mg, nelfinavir; 5×250-mg tablets during moderate calorie/low fat meal (500 Kcal/20% fat); read-out: t1/2 (terminal half-life), least-squares mean (converted)
OBSERVATION_TYPE: half-life

**Q:** Specify reported half-life for the compound shown: Cc1c(O)cccc1C(=O)N[C@@H](CSc1ccccc1)[C@H](O)CN1C[C@H]2CCCC[C@H]2C[C@H]1C(=O)NC(C)(C)C (relative stereo)
**A:** 3.08 h

###

assay: Example 1: phase I crossover food-effect study, single-dose pharmacokinetics of nelfinavir 250 mg tablets (total kilocalories and fat); format: in vivo, human (normal healthy volunteers); conditions: human, plasma, oral, 1250 mg, nelfinavir; food intake 500 kcal/20% fat; read-out: Cmax (Table 5)
OBSERVATION_TYPE: Cmax (ng/mL)
Numeric answer only, unit ng/mL assumed.

**Q:** Specify reported Cmax for the compound shown: Cc1c(O)cccc1C(=O)N[C@@H](CSc1ccccc1)[C@H](O)CN1C[C@H]2CCCC[C@H]2C[C@H]1C(=O)NC(C)(C)C (relative stereo) [nelfinavir]
**A:** 3670

###

Test: Example 2: phase 1 crossover 3×3 study, fixed kilocalorie meal at 20% and 50% fat, single-dose pharmacokinetics of nelfinavir 250 mg tablets
Type: in vivo, human (normal, healthy volunteers)
Conditions: human, plasma, oral, 1250 mg, Kcal/Fat % 500/50%; read-out: Nelfinavir AUC∞
Description: A study was conducted as a phase 1, randomized, open-label, crossover 3×3 study, designed to evaluate the impact of a fixed kilocalorie meal at 20% and 50% fat content on single-dose pharmacokinetic parameters of the nelfinavir 250 mg tablet formulation in normal, healthy volunteers. […] Blood samples were collected and analyzed for plasma concentrations of nelfinavir and M8. […] Plasma concentrations of nelfinavir and M8 were measured by validated high-performance liquid chromatography (HPLC) methods. […]
OBSERVATION_TYPE: AUC(0-inf)
Enter the number, and then the unit.

**Q:** Specify reported AUC(0-inf) for the compound shown: Cc1c(O)cccc1C(=O)N[C@@H](CSc1ccccc1)[C@H](O)CN1C[C@H]2CCCC[C@H]2C[C@H]1C(=O)NC(C)(C)C (relative stereo)
**A:** 54.6 µg·h/mL

###

Assay: Example 2: phase 1 crossover 3×3 study, fixed kilocalorie meal at 20% and 50% fat, single-dose pharmacokinetics of nelfinavir 250 mg tablets
Format: in vivo, human (normal, healthy volunteers)
Settings: human, plasma, oral, 1250 mg, nelfinavir; meal of 20% fat content (500 kcal); read-out: mean tmax longer relative to fasting subjects
Procedure: A study was conducted as a phase 1, randomized, open-label, crossover 3×3 study, designed to evaluate the impact of a fixed kilocalorie meal at 20% and 50% fat content on single-dose pharmacokinetic parameters of the nelfinavir 250 mg tablet formulation in normal, healthy volunteers. […] Blood samples were collected and analyzed for plasma concentrations of nelfinavir and M8. […] Plasma concentrations of nelfinavir and M8 were measured by validated high-performance liquid chromatography (HPLC) methods. […]
OBSERVATION_TYPE: Tmax

**Q:** Specify reported Tmax for the compound shown: Cc1c(O)cccc1C(=O)N[C@@H](CSc1ccccc1)[C@H](O)CN1C[C@H]2CCCC[C@H]2C[C@H]1C(=O)NC(C)(C)C (relative stereo)
**A:** ~2 h

###

test: Example 1: phase I crossover food-effect study, single-dose pharmacokinetics of nelfinavir 250 mg tablets (total kilocalories and fat); assay type: in vivo, human (normal healthy volunteers); conditions: human, plasma, po, 1250 mg, nelfinavir; 1250 mg single oral dose with moderate calorie/low fat meal (500 Kcal/20% fat); read-out: tmax, least-squares mean
OBSERVATION_TYPE: Tmax (h)
Numeric answer only, unit h assumed.

**Q:** Specify reported Tmax for the molecule shown: Cc1c(O)cccc1C(=O)N[C@@H](CSc1ccccc1)[C@H](O)CN1C[C@H]2CCCC[C@H]2C[C@H]1C(=O)NC(C)(C)C (relative stereo)
**A:** 3.87

###

test: Example 2: phase 1 crossover 3×3 study, fixed kilocalorie meal at 20% and 50% fat, single-dose pharmacokinetics of nelfinavir 250 mg tablets; format: in vivo, human (normal, healthy volunteers); conditions: human, plasma, oral, 1250 mg, nelfinavir; 5×250-mg tablets during moderate calorie/high fat meal (500 Kcal/50% fat); read-out: AUC(0-tlqc), least-squares mean
OBSERVATION_TYPE: AUC(0-t) (ng·h/mL)
Numeric answer only, unit ng·h/mL assumed.

**Q:** Specify reported AUC(0-t) for the compound shown: Cc1c(O)cccc1C(=O)N[C@@H](CSc1ccccc1)[C@H](O)CN1C[C@H]2CCCC[C@H]2C[C@H]1C(=O)NC(C)(C)C (relative stereo) [nelfinavir]
**A:** 52600

###

test: Example 2: phase 1 crossover 3×3 study, fixed kilocalorie meal at 20% and 50% fat, single-dose pharmacokinetics of nelfinavir 250 mg tablets; type: in vivo, human (normal, healthy volunteers); conditions: human, plasma, oral, 1250 mg, nelfinavir; 5×250-mg tablets during moderate calorie/high fat meal (500 Kcal/50% fat); read-out: Cmax, least-squares mean
OBSERVATION_TYPE: Cmax (ng/mL)
Numeric answer only, unit ng/mL assumed.

**Q:** Specify reported Cmax for the molecule shown: Cc1c(O)cccc1C(=O)N[C@@H](CSc1ccccc1)[C@H](O)CN1C[C@H]2CCCC[C@H]2C[C@H]1C(=O)NC(C)(C)C (relative stereo) [nelfinavir]
**A:** 6160

###

assay: Example 2: phase 1 crossover 3×3 study, fixed kilocalorie meal at 20% and 50% fat, single-dose pharmacokinetics of nelfinavir 250 mg tablets; type: in vivo, human (normal, healthy volunteers); details: human, plasma, oral, 1250 mg, 1250 mg single dose, fasting; read-out: Nelfinavir AUC24
OBSERVATION_TYPE: AUC (ng·h/mL)
Numeric answer only, unit ng·h/mL assumed.

**Q:** Specify reported AUC for the molecule shown: Cc1c(O)cccc1C(=O)N[C@@H](CSc1ccccc1)[C@H](O)CN1C[C@H]2CCCC[C@H]2C[C@H]1C(=O)NC(C)(C)C (relative stereo)
**A:** 10000

###

experiment: Example 1: phase I crossover food-effect study, single-dose pharmacokinetics of nelfinavir 250 mg tablets (total kilocalories and fat); type: in vivo, human (normal healthy volunteers); conditions: human, plasma, oral, 1250 mg, nelfinavir; food intake 125 kcal/20% fat; read-out: Cmax (Table 5)
OBSERVATION_TYPE: Cmax (ng/mL)
Numeric answer only, unit ng/mL assumed.

**Q:** Specify reported Cmax for the compound shown: Cc1c(O)cccc1C(=O)N[C@@H](CSc1ccccc1)[C@H](O)CN1C[C@H]2CCCC[C@H]2C[C@H]1C(=O)NC(C)(C)C (relative stereo) [nelfinavir]
**A:** 3160

###

experiment: Example 2: phase 1 crossover 3×3 study, fixed kilocalorie meal at 20% and 50% fat, single-dose pharmacokinetics of nelfinavir 250 mg tablets; assay type: in vivo, human (normal, healthy volunteers); conditions: human, plasma, oral, 1250 mg, nelfinavir; 5×250-mg tablets during moderate calorie/high fat meal (500 Kcal/50% fat); read-out: tmax, least-squares mean
OBSERVATION_TYPE: Tmax (h)
Numeric answer only, unit h assumed.

**Q:** Specify reported Tmax for the compound shown: Cc1c(O)cccc1C(=O)N[C@@H](CSc1ccccc1)[C@H](O)CN1C[C@H]2CCCC[C@H]2C[C@H]1C(=O)NC(C)(C)C (relative stereo) [nelfinavir]
**A:** 4.48

###

assay: Example 1: phase I crossover food-effect study, single-dose pharmacokinetics of nelfinavir 250 mg tablets (total kilocalories and fat); assay type: in vivo, human (normal healthy volunteers); details: human, plasma, oral, 1250 mg, nelfinavir; low calorie meal; read-out: mean tmax longer relative to fasting subjects
OBSERVATION_TYPE: Tmax

**Q:** Specify reported Tmax for the compound shown: Cc1c(O)cccc1C(=O)N[C@@H](CSc1ccccc1)[C@H](O)CN1C[C@H]2CCCC[C@H]2C[C@H]1C(=O)NC(C)(C)C (relative stereo)
**A:** ~1 h

###

assay: Example 1: phase I crossover food-effect study, single-dose pharmacokinetics of nelfinavir 250 mg tablets (total kilocalories and fat); format: in vivo, human (normal healthy volunteers); conditions: human, plasma, po, 1250 mg, nelfinavir; 1250 mg single oral dose with high calorie/high fat meal (1000 Kcal/50% fat); read-out: AUC(0-tlqc), least-squares mean
OBSERVATION_TYPE: AUC(0-t) (ng·h/mL)
Numeric answer only, unit ng·h/mL assumed.

**Q:** Specify reported AUC(0-t) for the compound shown: Cc1c(O)cccc1C(=O)N[C@@H](CSc1ccccc1)[C@H](O)CN1C[C@H]2CCCC[C@H]2C[C@H]1C(=O)NC(C)(C)C (relative stereo)
**A:** 38900

###

assay: Example 1: phase I crossover food-effect study, single-dose pharmacokinetics of nelfinavir 250 mg tablets (total kilocalories and fat); type: in vivo, human (normal healthy volunteers); settings: human, plasma, oral, 1250 mg, nelfinavir; food intake 500 kcal/20% fat; read-out: AUC12
OBSERVATION_TYPE: AUC

**Q:** Specify reported AUC for the compound shown: Cc1c(O)cccc1C(=O)N[C@@H](CSc1ccccc1)[C@H](O)CN1C[C@H]2CCCC[C@H]2C[C@H]1C(=O)NC(C)(C)C (relative stereo)
**A:** 25500 ng·h/mL
